# Test system: Fibroblast
# PROTOCOL DESCRIPTION: Multiplex assay against human fibroblast
# Format: toxicity, cell-based
# CONDITION: 24 h, 1 µM, compound concentration 1 uM, replicate 2
Please note: Population Hoechst High Intensity Objects (%) exactly at 3% is condition not met. Only values below 3% get condition met.

Population Hoechst High Intensity Objects (%) under 3%? Item: CCc1nn(CCCN2CCN(c3cccc(Cl)c3)CC2)c(=O)n1CCOc1ccccc1.Cl [NEFAZODONE HYDROCHLORIDE]
condition met

Continuing:
Population Hoechst High Intensity Objects (%) under 3%? Item: CC(C)(C)NC[C@H](O)COc1nsnc1N1CCOCC1
condition not met

Population Hoechst High Intensity Objects (%) under 3%? Item: COc1cc(Nc2nccc(-c3cnn4nc(OC)ccc34)n2)cc(C(F)(F)F)c1
condition met

Population Hoechst High Intensity Objects (%) under 3%? Item: O=C(c1cc2c(cc1F)OC(c1ccc(F)cc1)(c1ccc(Cl)cc1Cl)O2)N1CCOCC1 (centres undefined)
condition not met

Population Hoechst High Intensity Objects (%) under 3%? Item: CCc1ccc(OCc2ccccc2C(=O)Nc2ccc3nc(C)cc(N)c3c2)cc1.Cl
condition not met

Population Hoechst High Intensity Objects (%) under 3%? Item: CC(C)Oc1ccccc1C(=O)Nc1ccccc1C(=O)Nc1cccc(S(=O)(=O)C(F)(F)F)c1
condition not met

Population Hoechst High Intensity Objects (%) under 3%? Item: COc1ccccc1CN[C@H]1C2CCN(CC2)[C@H]1C(c1ccccc1)c1ccccc1
condition met

---

# System: HEK-293T
# PROTOCOL DESCRIPTION: Multiplex assay against HEK293T
# Type: toxicity, cell-based
# CONDITION: human, 48 h, 1 µM, compound concentration 1 uM, replicate 1
Please enter satisfied where Total Cell Count is greater than or equal to 300, and not satisfied where it is lower.

# count of solved cases: 5
Has CC(C)OC(=O)N1CCC(Oc2ncnc3c2cnn3-c2ccc(S(C)(=O)=O)cc2F)CC1 a recorded Total Cell Count greater than or equal to 300?
satisfied

Has O=c1cc(N2CCOCC2)oc2c(-c3cccc4c3sc3ccccc34)cccc12 a recorded Total Cell Count greater than or equal to 300?
satisfied

Has CN1CCN(Cc2ccc(Nc3ncc(Cl)c(Nc4ccccc4S(=O)(=O)N(C)C)n3)cc2)CC1 [DUBERMATINIB] a recorded Total Cell Count greater than or equal to 300?
satisfied

Has O=C(c1cc2c(cc1F)OC(c1ccc(F)cc1)(c1ccc(Cl)cc1Cl)O2)N1CCOCC1 (stereo not drawn) a recorded Total Cell Count greater than or equal to 300?
not satisfied

Has CC(C)Oc1ccccc1C(=O)Nc1ccccc1C(=O)Nc1cccc(S(=O)(=O)C(F)(F)F)c1 a recorded Total Cell Count greater than or equal to 300?
not satisfied

For the next question, use this molecule.
Has COc1cc(Nc2nccc(-c3cnn4nc(OC)ccc34)n2)cc(C(F)(F)F)c1 a recorded Total Cell Count greater than or equal to 300?
not satisfied

---

Measured Population Healthy Nuclei (%), listed per entry for reference.
# Tested on: HEK-293T
# PROTOCOL DESCRIPTION: Multiplex assay against HEK293T
# Assay type: toxicity, cell-based
# CONDITION: human, 24 h, 10 µM, compound concentration 10 uM, replicate 1
# value in %; strip the unit string

Below: 5 compounds and their reported Population Healthy Nuclei (%).
# compound CC(C)(C)NC[C@H](O)COc1nsnc1N1CCOCC1 ; its Population Healthy Nuclei (%) = 57

# compound COc1ccc(-c2ccc3ncc4c(c3c2)n(-c2ccc(N3CCNCC3)c(C(F)(F)F)c2)c(=O)n4C)cn1.O=C(O)/C=C\C(=O)O ; its Population Healthy Nuclei (%) = 0

# compound Cc1ccc(C)c(Oc2ccncc2C(=O)N2CCN(C3CC3)c3ccccc32)c1 ; its Population Healthy Nuclei (%) = 29

# compound CNC(=O)Nc1ccc(-c2nc(N3CC4CCC(C3)O4)c3cnn(C4CCC5(CC4)OCCO5)c3n2)cc1 ; its Population Healthy Nuclei (%) = 3

# compound C[C@]12CC[C@@H]3c4ccc(O)cc4CC[C@H]3[C@@H]1CC[C@@H]2O ; its Population Healthy Nuclei (%) = 46

Continuing:
# compound CC1=C(C(=O)Nc2cc3cn[nH]c3cc2F)C(c2ccc(C(F)(F)F)cc2)CC(=O)N1 (stereo not drawn) ; its Population Healthy Nuclei (%) = 41

# compound Cl.O=C(O)c1cc(-c2ccc(C3CCNCC3)cc2)c2ccc(-c3ccc(C(F)(F)F)cc3)cc2c1 ; its Population Healthy Nuclei (%) = 18

# compound CN1CCN(Cc2ccc(Nc3ncc(Cl)c(Nc4ccccc4S(=O)(=O)N(C)C)n3)cc2)CC1 ; its Population Healthy Nuclei (%) = 33

Origin of the recorded values: ChEMBL document CHEMBL4689842
